Measured kon values are reported for all entries that follow.
test-system: T1, human TSLP (human, UniProt Q969D9 29-159)
T1 construct: also called hTSLP; rhTSLP
protocol-summary: SPR
Entry rule: numbers only, all in M⁻¹ s⁻¹.

BDG38.128 (antibody, V domains shown, IgG1) VH: QMQLVESGGGVVQPGRSLTLSCAASGFEFRTYGMHWVRQAPGKGLEWVAVIWDDGSNTHYADSVKGRFTITRDNSKNTLNLQMNSLRVEDTAVYYCVRAPQWYLTAEAFDLWGQGTMVTVSS VL: SYILTQPPSVSVAPGETATITCGGNLIGAKLVHWYQQKPGQAPVLVIYDDSDRPSRIPERFSGSNSGNTATLTISDVEEGDEADYYCQVWDYYADTMVFGGGTKLTVL	4.25e+06

Now consider the entry below.
Give the reported value of kon for this record: BDG38.131 (antibody, V domains shown, IgG1) VH: QMQLVESGGGVVQPGRSLTLSCAASGFEFRTYGMHWVRQAPGKGLEWVAVIWDDGSNTHYADSVKGRFTITRDNSKNTLNLQMNSLRAEDTAVYYCVRAPQWYLTAEAFDLWGQGTMVTVSS VL: SYILTQPPSVSVAPGETATITCGGNLIGAKLVHWYQQKPGQAPVLVIYDDSDRPSRIPERFSGSNIGNTATLTISDVEEGDEADYYCQVWDYYSNTMVFGGGTKLTVL
3.82e+06
